target desc: TB14 (UniProt C9ZDC6)
Construct: 14-aa linker […]; BM3R, reductase domain of P450BM3 (CYP102A1), fusion partner after the linker; inferred from Ni-NTA purification and the pET28b vector
assay remarks: Binding affinities of Trp analogues toward TB14 (spectral shift titration)
study conditions: 1.5 μM enzyme, 25 mM Tris-HCl, pH 8.0
In plain terms, low Kd, meaning strictly below 30 µM, gives 1 (yes), and everything else gives 0 (no).

{"compound": "N[C@H](Cc1c[nH]c2ccccc12)C(=O)O", "qualitative label": "0 (no)"}

Now look at this one.
Query string: In plain terms, does O=C(O)C1Cc2c([nH]c3ccccc23)CN1 (centres unmarked) come in under 30 µM for Kd?
Result string: 0 (no)
